Data credit: patent US11667652B2

biological target: MCL1/Bim (Homo sapiens (Human)); assay: MCL1/Bim Binding AlphaLISA Assay; conditions: recombinant human 6xHis-MCL1 (171-327), biotinylated Bim peptide (51-76)
Sequence (Q07820 171-327): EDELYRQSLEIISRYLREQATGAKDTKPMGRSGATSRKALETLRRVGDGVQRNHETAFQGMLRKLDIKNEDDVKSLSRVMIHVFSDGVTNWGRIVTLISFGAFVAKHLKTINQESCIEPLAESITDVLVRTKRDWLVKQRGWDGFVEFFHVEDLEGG
measurement_label: IC50

Below, 3 molecules whose answers are already recorded.
molecule="CO[C@H]1/C=C/C[C@H](C)[C@@H](C)[S@@](=O)(NC(=O)COC2CCOCC2)=NC(=O)c2ccc3c(n2)N(C[C@@H]2CC[C@H]21)C[C@@]1(CCCc2cc(Cl)ccc21)CO3 [Example 203]" recorded_value="0.12 nM"
molecule="CO[C@H]1/C=C/C[C@H](C)C[S@@](=O)(Nc2nccc3nn(C)cc23)=NC(=O)c2ccc3c(c2)N(C[C@@H]2CC[C@H]21)C[C@@]1(CCCc2cc(Cl)ccc21)CO3 [Example 7]" recorded_value="1.74 nM"
molecule="COc1nn(C)cc1C(=O)N[S@@]1(=O)=NC(=O)c2ccc3c(c2)N(C[C@@H]2CC[C@H]2[C@@H](OC)/C=C/[C@H](OCc2cn(C)cn2)[C@H](C)C1)C[C@@]1(CCCc2cc(Cl)ccc21)CO3 [Example 85]" recorded_value="0.085 nM"

So what's the measured IC50 for this one? COc1nn(C)cc1C(=O)N[S@@]1(=O)=NC(=O)c2ccc3c(c2)N(C[C@@H]2CC[C@H]2[C@@H](OC)/C=C/[C@H](OCCN2CCN(C4COC4)CC2)[C@H](C)C1)C[C@@]1(CCCc2cc(Cl)ccc21)CO3 [Example 79]
0.062 nM

Here is the next molecule: COc1nn(C)cc1C(=O)N[S@@]1(=O)=NC(=O)c2ccc3c(c2)N(C[C@@H]2CC[C@H]2[C@H](O)/C=C/C[C@H](C)C1)C[C@@]1(CCCc2cc(Cl)ccc21)CO3 [Example 39]
0.201 nM

Now the molecule COc1nn(C)cc1C(=O)N[S@@]1(=O)=NC(=O)c2ccc3c(c2)N(C[C@@H]2CC[C@H]2[C@@](O)(C#CCN(C)C)/C=C/C[C@H](C)C1)C[C@@]1(CCCc2cc(Cl)ccc21)CO3 [Example 108]
0.048 nM

Next entry: COc1ccc2c(N[S@@]3(=O)=NC(=O)c4ccc5c(c4)N(C[C@@H]4CC[C@H]4[C@@H](OC)/C=C/C[C@H](C)C3)C[C@@]3(CCCc4cc(Cl)ccc43)CO5)ncnc2c1 [Example 21]
0.156 nM

Lookup COCCn1cc2c(N[S@@]3(=O)=NC(=O)c4ccc5c(c4)N(C[C@@H]4CC[C@H]4[C@@H](OC)/C=C/C[C@H](C)C3)C[C@@]3(CCCc4cc(Cl)ccc43)CO5)ncnc2n1 [Example 14]
0.965 nM

Repeat for the following molecule: COc1nn(C)cc1C(=O)N[S@@]1(=O)=NC(=O)c2ccc3c(n2)N(C[C@@H]2CC[C@H]2[C@@H](OC)/C=C/[C@H](OC)[C@H](C)C1)C[C@@]1(CCCc2cc(Cl)ccc21)CO3 [Example 198]
0.05 nM

Same question, COc1nn(C)cc1C(=O)N[S@@]1(=O)=NC(=O)c2ccc3c(c2)N(C[C@@H]2CC[C@H]2[C@@H](OC)C[C@H]2CC(O)O[C@@H]2[C@H](C)C1)C[C@@]1(CCCc2cc(Cl)ccc21)CO3 (stereo partly shown) [Example 139] this time
0.071 nM
